- System: UACC-62 melanoma
- Method description: NCI tumour cell line growth inhibition, 48 h
Field: GI50. Provide a value for each of the compounds that follow.

# compound C=C(C=O)C1CCC2(C(=O)O)CCC3(C)C(CCC4C5(C)CCC(O)C(C)(C)C5CCC43C)C12 (stereo not given) ; its GI50 = 1640 nM

Summary for this compound, "Oc1ccc(Cl)cc1Cc1cc(Cl)cc(Cl)c1O" : GI50 is 4550 nM

The compound identified as "O=C(OCc1ccc2cccc(O)c2n1)N1CCN(C(=O)c2cc3cc(F)ccc3[nH]2)CC1" registered its GI50 at 1170 nM

Item: "NCCCNc1nc2ccccc2c2c(=O)c3cc(OC(F)(F)F)ccc3sc12" | GI50: 1660 nM

Form: compound = "Cc1ccc2c(n1)C(=O)c1[nH]c3ccccc3c1C2=O" ; GI50 = 557 nM

* * *

- System: MALME-3M melanoma
- Method description: NCI tumour cell line growth inhibition, 48 h
Experimental endpoint: TGI

Hey, MALME-3M melanoma data for "O=C1c2ccccc2C(=O)C1(Cl)C1(S(=O)(=O)O)c2ccccc2-c2ccccc21" : TGI came out at > 100 µM

For the compound Cc1ccc(SC(C)/C=C/NNC2=NC(c3ccccc3)C(c3ccccc3)=NN2)cc1 (stereo not drawn) , the measured TGI on MALME-3M melanoma was > 100 µM

Summary: "O=C1CN=C(C[N+](=O)[O-])c2ccccc21" , MALME-3M melanoma, TGI = > 100 µM

# value of TGI, MALME-3M melanoma, item "Cc1nnc(S(=O)(=O)c2ccc(N=Nc3c(N)nc(N)nc3N)cc2)s1" = > 100 µM

MALME-3M melanoma data for "CCN1CCN(c2ccc(Nc3cc(N(C)C(=O)Nc4c(Cl)c(OC)cc(OC)c4Cl)ncn3)cc2)CC1" ; its TGI: 3.5 µM

Lab entry: MALME-3M melanoma assay, compound COC(C)(C)C1=CCC(C)CC1 (stereo not drawn) , TGI = > 100 µM

# "O=C(CCCn1ccnc1[N+](=O)[O-])NCCn1cncc1[N+](=O)[O-]" with MALME-3M melanoma: TGI is > 100 µM

The recorded TGI with MALME-3M melanoma for "Cc1ccc2c(n1)C(=O)c1[nH]c3ccccc3c1C2=O" was 1.07 µM

* * *

- Tested on: OVCAR-5 ovarian
- Method description: NCI tumour cell line growth inhibition, 48 h
Please provide measured TGI for the entries that follow.

GET /value?item= C=C1CC(c2ccc(OCCCN3C(=O)c4ccccc4C3=O)c(OC)c2)OC1=O (configuration not stated) &field=TGI returns 31.9 µM

Kindly note the recorded TGI for C=C(CCCCC)CN1CCCC1[C@@](C)(O)CC(=O)OCC (some centres not stated) , which is > 100 µM

Given item "COc1ccc(N=C2SC(=N/N=c3\sc4ccccc4n3C)SC2=Nc2ccc(OC)cc2)cc1" , the value recorded as its TGI is > 100 µM

Item: "COc1ccc(C(=O)Sc2c(-c3ccccc3)c(=O)n(-c3ccccc3)c(=S)n2-c2ccccc2)cc1" | TGI: > 100 µM

Memo: "Cc1nnc(S(=O)(=O)c2ccc(N=Nc3c(N)nc(N)nc3N)cc2)s1" , reported TGI: > 100 µM

Entry "Cn1c(=O)c2c(nc(Nc3cc(=O)[nH]c(=O)[nH]3)n2Cc2ccccc2)n(C)c1=O" , TGI reported as > 100 µM

Just so you know, measured TGI for "O=C(c1ccccc1)c1cc(Cl)ccc1OCCCCN1CCN(CCCCOc2ccc(Cl)cc2C(=O)c2ccccc2)CC1" came out at 48.1 µM
